- assayed.target: PTRGER4 (EP4) (Homo sapiens (Human), UniProt P35408)
- Sequence (P35408 whole entry, looked up): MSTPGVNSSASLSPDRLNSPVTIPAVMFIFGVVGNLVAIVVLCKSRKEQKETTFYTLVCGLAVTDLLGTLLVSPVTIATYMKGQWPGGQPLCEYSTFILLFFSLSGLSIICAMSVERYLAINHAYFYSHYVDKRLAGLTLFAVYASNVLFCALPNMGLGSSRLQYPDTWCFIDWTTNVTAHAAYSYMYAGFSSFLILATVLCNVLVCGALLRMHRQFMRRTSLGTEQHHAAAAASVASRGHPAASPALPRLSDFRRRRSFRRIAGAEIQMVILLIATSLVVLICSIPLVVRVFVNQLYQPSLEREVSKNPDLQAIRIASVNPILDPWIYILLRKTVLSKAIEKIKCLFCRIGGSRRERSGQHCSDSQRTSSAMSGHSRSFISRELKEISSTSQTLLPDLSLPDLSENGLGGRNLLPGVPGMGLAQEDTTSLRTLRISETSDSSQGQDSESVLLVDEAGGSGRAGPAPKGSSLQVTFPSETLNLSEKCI
- method.summary: hEP4 b-arrestin assay (PathHunter HEK 293 PTGER4 b-arrestin cells)
- Format: cell-based
- condition.notes: hEP4 b-arrestin assay (values without asterisk)
value.kind: log10 of IC50 (log10 of the value in nM)

• CCOc1cc(-c2cc(NCCn3c(C)cc4c(OC)ccc(F)c43)ncn2)sc1NC=O [Example 1072] = 1.23
• CCCSc1cc(-c2cc(NCCn3c(C#N)cc4c(OC)cc(F)cc43)ncn2)ccc1C(=O)O [Example 936] = 0.90
• CCc1nc(-c2cc(NCCn3c(C)cc4c(OC)ccc(F)c43)ncn2)sc1C(=O)O [Example 1037] = 2.00
• CCOc1cc(-c2cc(NCCn3c(C#N)cc4c(Cl)cc(Cl)cc43)ncn2)sc1C(=O)O [Example 889] = 1.54
• CCOc1cc(-c2cc(NCCn3c(C#N)cc4c(OC)ccc(F)c43)ncn2)ccc1C(=O)C(=O)O [Example 934] = 1.49
• COc1ccc(F)c2c1cc(C#N)n2CCNc1cc(-c2c(C)nn(C)c2C)ncn1 [Example 998] = 2.84

* * *

- assayed.target: PTGER2 (EP2) (Homo sapiens (Human), UniProt P43116)
- Sequence (P43116 whole entry): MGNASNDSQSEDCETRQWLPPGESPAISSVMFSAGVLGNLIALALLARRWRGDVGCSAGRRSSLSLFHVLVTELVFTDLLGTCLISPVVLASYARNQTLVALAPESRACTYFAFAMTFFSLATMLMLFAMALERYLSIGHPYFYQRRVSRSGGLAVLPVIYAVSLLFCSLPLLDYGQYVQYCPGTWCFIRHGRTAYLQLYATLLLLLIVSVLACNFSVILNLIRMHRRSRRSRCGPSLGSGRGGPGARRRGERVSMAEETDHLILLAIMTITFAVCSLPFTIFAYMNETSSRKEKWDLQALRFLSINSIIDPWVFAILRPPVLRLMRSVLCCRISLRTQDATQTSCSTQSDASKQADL
- method.summary: hEP2 b-arrestin assay (PathHunter HEK 293 PTGER2 b-arrestin cells)
- Assay type: cell-based
- condition.notes: hEP2 b-arrestin assay (values without asterisk)
value.kind: IC50 (nM)

* CCOc1cc(-c2cc(NCCn3c(C)cc4c(OC)ccc(F)c43)ncn2)sc1C(C)O (stereo not shown) | 10
* COc1ccc(F)c2c1cc(C#N)n2CCNc1cc(-c2ccc(-c3cnc[nH]3)cc2)ncn1 | 15
* CCOc1cc(-c2cc(NCCn3c(C)cc4c(OC)ccc(F)c43)ncn2)ccc1OCC(=O)O | 9
* CCCc1cc(-c2cc(NCCn3c(C#N)cc4c(OC)ccc(F)c43)ncn2)cc(F)c1C(=O)O | 15
* CCOc1cc(-c2cc(NCCn3c(C#N)cc4c(OC)ccc(F)c43)ncn2)sc1C(=O)OCC(=O)N(C)C | 9
* COc1cc(-c2cc(NCCn3c(C#N)cc4c(OC)ccc(F)c43)ncn2)sc1C1(O)COC1 | 13
* N#Cc1cc2c(Cl)cc(Cl)cc2n1CCNc1cc(-c2cc(C(F)(F)F)c(C(=O)O)s2)ncn1 | 8

* * *

- assayed.target: PTRGER4 (EP4) (Homo sapiens (Human), UniProt P35408)
- method.summary: hEP4 b-arrestin assay (PathHunter HEK 293 PTGER4 b-arrestin cells)
- Format: cell-based
- condition.notes: hEP4 b-arrestin assay (values without asterisk)
The entries below are paired with their reported log10 of IC50.
value.kind: log10 of IC50 (log10 of the value in µM)

* COc1ccc(F)c2c1cc(C)n2CCNc1cc(-c2ccc(C(=O)O)c(OC3CC4(COC4)C3)c2)ncn1 | -0.65
* CCOc1cc(-c2cc(NCCn3c(C#N)cc4c(C)c(F)c(F)cc43)ncn2)ccc1OCC(=O)O | -0.93
* CCOc1cc(-c2cc(NCCn3c(C#N)cc4c(OC)ccc(F)c43)ncn2)sc1C(=O)NS(C)(=O)=O | -2.22
* CCOc1cc(C(=O)O)cc(-c2cc(NCCn3c(C#N)cc4c(OC)ccc(F)c43)ncn2)c1 | -1.51
* CCNC(=O)Nc1ccc(-c2cc(NCCn3c(C#N)cc4c(OC)ccc(F)c43)ncn2)cc1OC | -2.52
* CCOc1c(C(=O)O)ccc(-c2cc(NCCn3c(C#N)cc4c(OC)ccc(F)c43)ncn2)c1F | -1.35
* COc1ccc(F)c2c1cc(C#N)n2CCNc1cc(-c2ccc(C(=O)O)c(OC(F)F)c2)ncn1 | -1.46
* COc1ccc(F)c2c1cc(C#N)n2CCNc1cc(-c2ccnc(N3CCC3)c2)ncn1 | -1.26
